Test system: SF-295 CNS
Assay: NCI-60 one-dose screen, 48 h (100 = growth as untreated, 0 = no growth, -100 = all killed)
Settings: 10 µM unless noted
The panel holds about 83,000 compounds, 20% with a hit somewhere; the sample as a whole holds those more often.
Each entry below carries its recorded growth.
Answer in %, number only, no unit symbol.

Request: Supply measured growth of N/C(=N\N=C\c1cc2ccccc2[nH]1)N/N=C/c1cc2ccccc2[nH]1 in your reply.
Result: 111

***
Request: Please indicate growth recorded for CC1(C)CN(Cc2ccccc2)CCN1Cc1ccccc1
Result: 101

Request: State its growth for this compound: CCCCCOc1ccc(/C=N/Nc2cc(C)nc3ccc(Br)cc23)cc1
Result: -84.8

Request: Give the reported growth for this compound. CCCNC(=O)Oc1ccc(/C(=C(\C)c2ccccc2)c2ccc(OCCN3CCCCC3)cc2)cc1
Result: 55

Request: Answer with the recorded growth for the compound listed here: COc1ccc(CNC(=O)COc2ccc(/C=N/Nc3nc4ccccc4s3)cc2)cc1
Result: 47.4

Request: Dear colleague, please send me the reported growth for O=C(Nc1nc(-c2ccc(Br)cc2)cs1)c1cc(-c2ccc(Br)cc2)nc2ccc(Cl)cc12 when you can.
Result: 97.8
